System: Escherichia coli
method-description: Antimicrobial activity against Escherichia coli
Assay type: functional, organism-based
Active and inactive are the calls of the source. The calls are words filed in the database; no cut-off is given here.
experimental-readout: Activity

Use the examples below as a reference point.
[
  {
    "structure-as-smiles": "O=C1CCCCN1c1ccc(CO[C@@H]2COc3nc([N+](=O)[O-])cn3C2)cc1F",
    "assayed-system": "Escherichia coli",
    "result": "inactive"
  },
  {
    "structure-as-smiles": "O=[N+]([O-])c1cn2c(n1)OC[C@@H](OCc1ccc(N3CCCCC3)nc1)C2",
    "assayed-system": "Escherichia coli",
    "result": "inactive"
  },
  {
    "structure-as-smiles": "O=C1COCCN1c1ccc(CO[C@@H]2COc3nc([N+](=O)[O-])cn3C2)cn1",
    "assayed-system": "Escherichia coli",
    "result": "inactive"
  },
  {
    "structure-as-smiles": "O=C1COCCN1c1ccc(CO[C@@H]2COc3nc([N+](=O)[O-])cn3C2)cc1",
    "assayed-system": "Escherichia coli",
    "result": "inactive"
  },
  {
    "structure-as-smiles": "O=C1CSCCN1c1ccc(CO[C@@H]2COc3nc([N+](=O)[O-])cn3C2)cn1",
    "assayed-system": "Escherichia coli",
    "result": "inactive"
  }
]

Give Activity for all compounds that follow.
1. O=C1CCCCN1c1ccc(CO[C@@H]2COc3nc([N+](=O)[O-])cn3C2)cc1
2. O=[N+]([O-])c1cn2c(n1)OC[C@@H](OCc1ccc(N3CCCCC3)cc1)C2
3. O=C1CSCCN1c1ccc(CO[C@@H]2COc3nc([N+](=O)[O-])cn3C2)cc1
4. O=C1CSCCN1c1ccc(CO[C@@H]2COc3nc([N+](=O)[O-])cn3C2)cc1F

output:
["inactive", "inactive", "inactive", "inactive"]
